Cited source for all entries: PubChem BioAssay (NCI)

System: KM20L2 colon
Experiment: NCI tumour cell line growth inhibition, 48 h
measurement type: TGI

1. CC1CCCC2(O1)OC1CC(=O)OC1C1=C2C(=O)c2ccccc2C1=O (centres undefined): 16 µM
2. COCC(O)CN1C(N)=NC(O)C1O (centres undefined): > 100 µM
3. CCN(CC)CC(C(=O)Nc1c(C)cccc1C)/C(C)=N/NC(N)=S (centres undefined): > 100 µM
4. COC(=O)C1CCC2(CC1)NC(=O)NC2=O (centres undefined): > 100 µM
5. COc1ccccc1C1C(Cl)C(=O)N1NC(=O)Cc1ccccc1 (centres undefined): > 100 µM
6. O=C1c2ccccc2CC1C1(O)C(=O)Nc2c(Cl)cc(Cl)cc21 (centres undefined): > 100 µM
7. CCOc1ccccc1Nc1nc(C)c(C(=O)CC(=O)C(=O)Nc2ccccc2)s1: > 100 µM
8. CCCCCC(=O)OC[n+]1ccc2c(C)c3[nH]c4ccccc4c3c(C)c2c1: 2.75 µM
9. CC(C)OP(=O)(OC(C)C)c1ncn(-c2ccc([N+](=O)[O-])cc2)n1: > 100 µM
10. O=C(CCc1nnc2s/c(=C\c3ccc(Cl)cc3Cl)c(=O)n12)Nc1cc(Cl)c(Cl)cc1Cl: > 100 µM
11. CCCCCC1C2C(=O)NC(=O)C1C(=O)NC2=O (centres undefined): > 100 µM
12. C[CH2][Ge]1([CH2]C)[CH2]CC2(CCN(CCCN(C)C)C2)C[CH2]1: 11 µM
13. Cc1nc2c(=O)n(C)c(=O)nc-2n(-c2ccc(Cl)cc2)c1C: > 100 µM
14. CCC1OC(=O)C(C)C(OC2CC(C)(O)C(O)C(C)O2)C(C)C(O)C(C)(O)CC(C)C(=O)C(C)C(O)C1C (centres undefined): > 300 µM

====

Below is a list of entries, each paired with its recorded TGI value.
Test system: CCRF-CEM leukemia
Assay: NCI tumour cell line growth inhibition, 48 h
measurement type: TGI

1) N#Cc1ccc(/C=C2\Cc3ccccc3C2=O)cc1: > 100 µM
2) COc1c(-c2ccc3c(c2)OCO3)oc2cc3c(c(OC)c2c1=O)OCO3: > 100 µM
3) O=C1NC(N2CCCC(CO)C2)=N/C1=C\c1ccc(O)cc1 (stereo unspecified): > 100 µM
4) Cc1ccc(-c2c(C#N)c(O)n(NS(=O)(=O)c3ccccc3)c(=O)c2C#N)cc1: > 100 µM
5) COc1cc(C2C(C(=O)Nc3ccc(Cl)c(Cl)c3)=C(C)NC(C)=C2C(=O)Nc2ccc(Cl)c(Cl)c2)ccc1O: 13.5 µM
6) COC(=O)[C@@H](C)C[C@H](Cc1ccccc1)NC(=O)c1cccc([C@@H](C[C@H](C(C)C)N(C)C(=O)[C@@H](NC(=O)[C@H]2CCCCN2C)C(C)C)OC(C)=O)n1: > 16.7 µM
7) Fc1ccccc1N=c1oc2ccc(Br)cc2cc1-c1nc2ccccc2[nH]1: > 100 µM
8) COc1cc(C2C3=C(COC3=O)N(CCO)c3cc4c(cc32)CCC4)cc(OC)c1OC (stereo unspecified): > 32.5 µM
9) Nc1c2ccccc2nc2ccc(C(=O)Nc3ccc(S(N)(=O)=O)cc3)cc12: > 100 µM
10) CCOC(=O)c1ccccc1NC(c1ccccc1)c1ccc2cccnc2c1O (stereo unspecified): > 100 µM
11) C[N+]12C=CC=C1C(N1CCCC1)c1sc(-c3ccc(Cl)cc3)cc12 (stereo unspecified): 62.8 µM
12) N#Cc1ccc(NC(=NCC(=O)O)Nc2ccc3ccccc3c2)cc1: > 10 µM
13) Oc1c(Br)cc(Br)c2cccnc12: 8.83 µM
14) CN(C)CCCn1c2c(c3ccncc3c1=O)C(=O)c1ccccc1-2: 13 µM
15) CCN(CC)CCCC(C)NC(=S)N/N=C(\C)c1ccccn1 (stereo unspecified): > 100 µM
16) Nc1cc2[nH]c(=O)c3cc(Cl)ccc3c2cc1Cl: > 100 µM
17) COc1ccc(/C(C)=C(\c2ccc(Cl)cc2)c2ccc(OCCN3CCCCC3)cc2)cc1F: 16.1 µM
18) Cc1ccc(CCNC(=S)SCC(NC(=O)CCC(N)C(=O)O)C(=O)NCC(=O)O)cc1 (stereo unspecified): 2.18 µM
19) CC(=O)OC1C(OC/C2=C/C3[C@@H](C(C)C)CC=C(C)[C@@H]3CC(OC(=O)/C=C/c3cn(C)cn3)[C@]3(C)C=C[C@@]2(O)O3)OCC(O)C1O (stereo partly specified): > 50 µM
20) COc1cc(OC)c(-c2oc3ccccc3c(=O)c2O)c(OC)c1: > 100 µM
21) CCCCc1ccc(C(N)=O)nc1: > 100 µM

====

Test system: HT29 colon
Test: NCI tumour cell line growth inhibition, 48 h; in the data active means GI50 below about 0.43 µM; inactive means the rest
Outcome codes: active, inactive

1. Cn1cc(C2=C(c3cn(CCCSC(=N)N)c4ccccc34)C(=O)NC2=O)c2ccccc21: inactive
2. Nc1cc(N)c2nc(-c3ccccc3)c(Sc3ccc(F)cc3)nc2c1: inactive
3. CN1CCN(Cc2ccc(NC(=O)c3cncc(C#Cc4c(N)ncc5ccc(F)cc45)c3)cc2C(F)(F)F)CC1: active
4. Cn1cnc2nc(Cl)nc(Cl)c21: active
5. CCN(CC)CCCC(C)NC(=S)N/N=C(\C)c1ccccn1 (stereo not given): inactive
6. N#CC1=C(N)Oc2c(ccc3ccccc23)C1c1ccccc1Cl (stereo not given): active
7. CC(=O)OC1C(OC/C2=C/C3[C@@H](C(C)C)CC=C(C)[C@@H]3CC(OC(=O)/C=C/c3cn(C)cn3)[C@]3(C)C=C[C@@]2(O)O3)OCC(O)C1O (stereo not given in full): active
8. N#Cc1ccccc1C#C/C=C\C#Cc1cnccn1: inactive
9. COc1cc2c(c(OC)c1OC)-c1c(c3ccc([N+](=O)[O-])cc3c(=O)n1CCCN=[N+]=[N-])C2=O: inactive
10. COc1ccc(/C=C2\CN(Cc3cn(CCCNc4ccnc5cc(Cl)ccc45)nn3)C/C(=C\c3ccc(OC)cc3)C2=O)cc1: inactive
11. NCCN.O=N[O-].O=N[O-].O=N[O-].O=N[O-].[Co+3].[K+]: inactive
12. O=C1/C(=C/c2ccc([N+](=O)[O-])s2)Oc2ccc(Cl)cc21: inactive
13. CCN(CC)CCC(CNc1c2ccc(Cl)cc2nc2ccc(OC)cc12)c1ccccc1 (stereo not given): active
14. Oc1ccc(-c2nc(-c3ccc4oc5ccc(-c6[nH]c(-c7ccc(O)cc7)nc6-c6ccccc6)cc5c4c3)c(-c3ccccc3)[nH]2)cc1: inactive
15. Cn1c([N+](=O)[O-])cnc1/C=C1\Oc2ccc(Cl)cc2C1=O: active
16. CNCc1ccc(C)c(NC(=O)c2ccc(Nc3nc(-c4ccccc4)c4ccccc4n3)cc2)c1: inactive
17. COc1ccc(/C=C2\CC(C)CC3C2=NN(C(C)=O)C3c2ccc(OC)c(OC)c2)cc1OC (stereo not given): inactive
18. O=C(/C=C/CN1CCCCC1)Nc1cc2c(Nc3ccc(F)c(Cl)c3F)ncnc2cc1OCCOC(F)F: inactive
19. COC(=O)c1cc2c([nH]c3ccccc32)c(-c2nc3cc(N(S(=O)(=O)c4ccc(C)cc4)S(=O)(=O)c4ccc(C)cc4)c(OC)cc3cc2CO)n1: inactive
20. Cc1ccc(S(=O)(=O)NC(CCCCN)C(=O)CCl)cc1 (stereo not given): inactive

====

Test system: ACHN renal
Assay: NCI tumour cell line growth inhibition, 48 h
Below is a list of entries, each paired with its recorded TGI value.
measurement type: TGI

1. O=C1c2ccccc2CC1C1(O)C(=O)Nc2c(Cl)cc(Cl)cc21 (stereo not given): > 100 µM
2. CCCC1C2=C(C(=O)OC2=O)C2C(CC)CC3=C(C(=O)OC3=O)C12 (stereo not given): > 100 µM
3. COc1cc2c(cc1Nc1nc(Nc3ccsc3C(N)=O)c3cc[nH]c3n1)N(C(=O)CN(C)C)CCC2: 6.06 µM
4. Cn1c(N)cc(=O)nc1N: > 100 µM
5. CC(C)OP(=O)(OC(C)C)c1ncn(-c2ccc([N+](=O)[O-])cc2)n1: > 100 µM
6. COc1ccc2[nH]c3c(C)c4ccnc(NCCCN(C)CCCNC(=O)NCCCN(C)CCCNc5nccc6c(C)c7[nH]c8ccc(OC)cc8c7c(C)c56)c4c(C)c3c2c1: 2.8 µM
7. COC(=O)c1c(OC(=O)c2ccccc2)noc1CC(=O)OC1C=CCCC1 (stereo not given): > 100 µM
8. Nc1n[nH]c(=O)c2c1c(Br)cn2C1OC(CO)C(O)C1O (stereo not given): > 100 µM
9. Cc1c2cccc-2c(N(C)C)cc2c1[nH]c1ccccc12: 12.4 µM
10. CC/C(=C(\c1ccccc1)c1ccc(OCC[N+](C)(C)C)cc1)c1ccccc1: 34.6 µM
11. C=C(Cl)C(Cl)(CBr)CCC(Cl)C(C)C (stereo not given): 9.52 µM
12. CN(C)/C=C/c1ccnc2c1C(=O)c1ccccc1C2=O: > 50.7 µM
13. N#Cc1ccc(/C=C2\Cc3ccccc3C2=O)cc1: > 100 µM
14. Cc1cn2cc(-c3ccncc3)nc2s1: > 100 µM
15. CC(C)(C)C(=O)Cc1cc2c(cc1C(=O)O)S(=O)(=O)NC(C(C)(C)C)=C2: > 100 µM
